tested on: HOP-62; test: relative viability (nuclei count vs DMSO), 5 days (fraction); higher = more cells survive; conditions: first compound 0.253 µM
readout: relative viability
Numbers only.

I would be grateful if you could provide relative viability for each of the following entries.
1. Cc1cnc(-c2cnc(NCCNc3ccc(C#N)cn3)nc2-c2ccc(Cl)cc2Cl)[nH]1 + CC(C)C[C@H](NC(=O)[C@H](Cc1ccccc1)NC(=O)c1cnccn1)B(O)O [Bortezomib] (partner 0.002 µM)
2. Cc1cnc(-c2cnc(NCCNc3ccc(C#N)cn3)nc2-c2ccc(Cl)cc2Cl)[nH]1 + Cc1nc(Nc2ncc(C(=O)Nc3c(C)cccc3Cl)s2)cc(N2CCN(CCO)CC2)n1 [Dasatinib] (partner 0.075 µM)

[0.772, 0.668]

GET /values?readout=relative viability&system=HOP-62&item= O=c1[nH]c2ccccc2n1C1CCN(CCCC(c2ccc(F)cc2)c2ccc(F)cc2)CC1 [Pimozide] + CS(=O)(=O)CCNCc1ccc(-c2ccc3ncnc(Nc4ccc(OCc5cccc(F)c5)c(Cl)c4)c3c2)o1 [Lapatinib] (partner 2 µM) 1.09

----------
tested on: RERF-LC-KJ; experiment: relative viability (nuclei count vs DMSO), 5 days (fraction); higher = more cells survive; conditions: first compound 0.0002 µM
readout: relative viability
Answers are plain numbers.

molecule	target-or-system	relative viability
CC(=O)O[C@@]12CO[C@@H]1C[C@H](O)[C@@]1(C)C(=O)[C@H](O)C3=C(C)[C@@H](OC(=O)[C@H](O)[C@@H](NC(=O)OC(C)(C)C)c4ccccc4)C[C@@](O)([C@@H](OC(=O)c4ccccc4)[C@H]21)C3(C)C [Docetaxel] + C[C@@H](Oc1cc(-c2cnn(C3CCNCC3)c2)cnc1N)c1c(Cl)ccc(F)c1Cl [Crizotinib] (partner 1 µM)	RERF-LC-KJ	0.868
CC(=O)O[C@@]12CO[C@@H]1C[C@H](O)[C@@]1(C)C(=O)[C@H](O)C3=C(C)[C@@H](OC(=O)[C@H](O)[C@@H](NC(=O)OC(C)(C)C)c4ccccc4)C[C@@](O)([C@@H](OC(=O)c4ccccc4)[C@H]21)C3(C)C [Docetaxel] + COc1cccc2cc(-c3nc([C@H]4CC[C@H](C(=O)O)CC4)n4ncnc(N)c34)[nH]c12 [OSI-027] (partner 0.5 µM)	RERF-LC-KJ	0.564

Report relative viability for CC(=O)O[C@@]12CO[C@@H]1C[C@H](O)[C@@]1(C)C(=O)[C@H](O)C3=C(C)[C@@H](OC(=O)[C@H](O)[C@@H](NC(=O)OC(C)(C)C)c4ccccc4)C[C@@](O)([C@@H](OC(=O)c4ccccc4)[C@H]21)C3(C)C [Docetaxel] + Nc1nc2[nH]cc(CCc3ccc(C(=O)N[C@@H](CCC(=O)O)C(=O)O)cc3)c2c(=O)[nH]1 [Pemetrexed] (partner 0.2 µM) please. 0.375

----------
test system: NCI-H1993; test: relative viability (nuclei count vs DMSO), 5 days (fraction); higher = more cells survive; conditions: first compound 158.11 µM
Consider the following compounds; for each one, report its relative viability.
Give bare numbers.

I would be grateful if you could provide relative viability for each of the following entries.
1. O=C(O)CCCCC(CCSCc1ccccc1)SCc1ccccc1 (stereo not drawn) [CPI-613] + N=C(N)NC(=N)NCCc1ccccc1 [Phenformin] (partner 250 µM)
2. O=C(O)CCCCC(CCSCc1ccccc1)SCc1ccccc1 (stereo not drawn) [CPI-613] + C[C@]1(O)C[C@@H](c2nc(-c3ccc4ccc(-c5ccccc5)nc4c3)c3c(N)nccn32)C1 [Linsitinib] (partner 1 µM)

1. 0.473
2. 0.61

GET /values?readout=relative viability&system=NCI-H1993&item= O=C(O)CCCCC(CCSCc1ccccc1)SCc1ccccc1 (stereo not drawn) [CPI-613] + COc1cccc2cc(-c3nc([C@H]4CC[C@H](C(=O)O)CC4)n4ncnc(N)c34)[nH]c12 [OSI-027] (partner 0.5 µM) 0.46

Hey, just so you know, these numbers are from the supplement of paper PMC10307832.
